measurementDescription: Solubility estimates in test solvents (aliquot addition, visual inspection)
Type: physicochemical
measurementConditions: organic solvent or mixture, thermodynamic from solid; solvent IPA; room temperature; approximate; read-out: Solubility

molecule	solubility
Cn1c(=O)cc(N2CCC[C@@H](N)C2)n(Cc2ccccc2C#N)c1=O [Form A]	< 1000 µg/mL

* * *

measurementDescription: Solubility estimates in test solvents (aliquot addition, visual inspection)
Format: physicochemical
measurementConditions: ethanol, organic solvent or mixture, thermodynamic from solid; solvent EtOH; room temperature; approximate; read-out: Solubility

compound	solubility
Cn1c(=O)cc(N2CCC[C@@H](N)C2)n(Cc2ccccc2C#N)c1=O [Form A]	< 3000 µg/mL
